# System: HT-29
# ASSAY INFO: NCI tumour cell line growth inhibition, 48 h
Calls of active or inactive are those of the source. Rule as the data show it: active = GI50 up to about 1.1 µM and inactive = higher.
Answer each item with its documented GI50.

Answer with reported GI50 of "O=C(O)CCNc1ncc2c(n1)-c1ccccc1OC2"
> 100 µM (inactive)

Answer with reported GI50 of COc1cc(OC)c2c(c1)OC(c1ccccc1)CC2=O (stereo not given)
> 10 µM (inactive)

Answer with reported GI50 of "COC(=O)c1onc(-c2c(OC)cc(OC)cc2OC)c1C(=O)OC"
> 100 µM (inactive)

Answer with reported GI50 of Cc1cc(C)c2c(c1)C1=NCCN1C2(O)c1ccc(Cl)cc1 (stereo not given)
16.5 µM (inactive)

Answer with reported GI50 of C=C(C)C1CC[C@]2(C(=O)O)CCC3(C)[C@H](CCC4[C@@]5(C)CC[C@H](OC6OC(CO)C(O)C6OC6OC(C)C(O)C(O)C6O)[C@@](C)(CO)C5CC[C@]43C)C12 (stereo not given in full)
> 100 µM (inactive)

###

# System: MDA-MB-435
# ASSAY INFO: NCI tumour cell line growth inhibition, 48 h
Active and inactive are the calls of the source. No stated cut-off is given here; in the data, active = GI50 up to about 1.1 µM and inactive = higher.
Hi there, use one of these labels in your reply, thanks! yes (1) for active, no (0) for inactive

Check the results log: what was the call for "Cc1ccc(/N=N/c2c(O)c(C(=O)Nc3ccccc3)cc3ccccc23)c([N+](=O)[O-])c1" ?
no (0)

Check the results log: what was the call for "Cc1cc2nc3c(C#N)c4c(c(Cl)n3c2cc1C)CCC4" ?
no (0)

Check the results log: what was the call for "S=C(NCCc1ccccn1)N/N=C(\c1ccccc1)c1ccccn1" ?
no (0)

Check the results log: what was the call for O=C1c2ccccc2CC12Cc1cc3c(cc1C2=O)CCC3 (stereo not drawn) ?
no (0)

Check the results log: what was the call for "CCNC1=C(NC(=O)c2ccc(OC)cc2)C(=O)c2ccccc2C1=O" ?
no (0)

Check the results log: what was the call for C[C@@]1(c2ccccc2)O[C@@H]2C[C@H]3[C@@H]4CCC5=CC(=O)C=C[C@]5(C)[C@@]4(F)[C@@H](O)C[C@]3(C)[C@]2(C(=O)CO)O1 [AMCINAFIDE] ?
no (0)

Check the results log: what was the call for "COc1ccc(N(C(=O)OC(C)(C)C)[C@@H]2C(C)=C[C@H]([S@@+]([O-])c3ccc(C)cc3)[C@@H]3C(=O)N(C)C(=O)[C@@H]32)cc1" ?
no (0)

Check the results log: what was the call for "CCOC(=O)c1ncn(CCc2ccc(Cl)cc2)c1C" ?
no (0)

Check the results log: what was the call for CC(=O)Nc1ccc(C(=O)NN2C(=O)C(Cl)C2c2ccc(Cl)cc2)cc1 (stereo not drawn) ?
no (0)

Check the results log: what was the call for CN(C(=O)c1ccccc1)C1CCCC(=O)CC1 (stereo not drawn) ?
no (0)

Check the results log: what was the call for "COc1ccc(/C=N/n2cnc3[nH]c(C)c(Cc4ccccc4)c3c2=N)cc1" ?
no (0)

Check the results log: what was the call for "CN(C)c1nc(N)nc(CS)n1" ?
no (0)

Check the results log: what was the call for "O=C(O)CSc1nnc(COc2ccc(Cl)cc2)n1-c1ccccc1" ?
no (0)

Check the results log: what was the call for COc1ccc(-c2c3c(n(C4OC(COC(C)=O)C(OC(C)=O)C(OC(C)=O)C4OC(C)=O)c(=S)c2C#N)CCCC3)cc1 (stereo not drawn) ?
no (0)

Check the results log: what was the call for COc1cc(COC(=O)NC(Cc2cccs2)C(=O)O)c([N+](=O)[O-])cc1OC (stereo not drawn) ?
no (0)

Check the results log: what was the call for "CN(C)c1ccc(C(=N/N=C2\C(=O)Nc3ccccc32)c2ccc(N(C)C)cc2)cc1" ?
yes (1)

Check the results log: what was the call for COc1cc(OC2OC(COC(=O)c3cc(O)c(O)c(O)c3)C(O)C(O)C2O)ccc1O (stereo not drawn) ?
no (0)

Check the results log: what was the call for "C=C1C(=O)O[C@@H]2C[C@@H]3[C@]4(CC[C@]5(C)[C@@H]([C@H](C)CC/C=C(\C)C=O)CC[C@@]35C)C[C@]4(CCC(=O)OC)[C@H]12" ?
no (0)

Check the results log: what was the call for O=C1NC2CCCCC2NC1=C(C(=O)c1ccccc1)C(=O)c1ccccc1 (stereo not drawn) ?
no (0)

Check the results log: what was the call for "CN(C)CCCNC(=O)CCNC(=O)c1cc(NC(=O)c2cc(NC(=O)c3cc(NC(=O)c4nc(NC(=O)CCCNC(=O)c5cc(NC(=O)c6cc(NC(=O)c7cc(NC(=O)c8nccn8C)cn7C)cn6C)cn5C)cn4C)cn3C)cn2C)cn1C" ?
no (0)

Check the results log: what was the call for "CCCCCC/C=C\CCCCCCCCCC1=CC(=O)C=C(OC)C1=O" ?
no (0)

Check the results log: what was the call for COc1cccc(C2SCC(=O)N2c2ccc(-n3c(-c4ccccc4)nc4ccccc4c3=O)cc2)c1OC (stereo not drawn) ?
no (0)

Check the results log: what was the call for COc1cc2c3c(cc(Cl)nc3c1OC)C(O)(CC(C)=O)C(=O)N2 (stereo not drawn) ?
no (0)

Check the results log: what was the call for CCC(C)OC(=O)/C(Br)=C1/OC(=O)c2ccccc2-c2ccccc21 (stereo not drawn) ?
no (0)

Check the results log: what was the call for "COc1ccc(OCc2ccc3nc(-c4ccccc4)c(Cl)nc3c2)cc1" ?
no (0)

Check the results log: what was the call for "COc1cc2nc(-c3c(F)cccc3F)n(Cc3c(F)cccc3F)c2cc1Cc1c(F)cccc1F" ?
no (0)

Check the results log: what was the call for "Cc1n[nH]c(=O)n1/N=C\c1ccccc1" ?
no (0)

Check the results log: what was the call for "CNC(=S)NN=C1NCCCCN1" ?
no (0)

Check the results log: what was the call for "COc1ccc(C2=C3SC=c4ccccc4=C3ON=C2c2ccccc2)cc1" ?
no (0)

Check the results log: what was the call for COc1ccc(OC)c2c1C=C[C@H](C1(C)SCCS1)C2C(C)=O (stereo partly drawn) ?
no (0)

Check the results log: what was the call for Cc1ccc(NCC2CC/C(=C\c3ccc(Cl)cc3)C2=O)cc1 (stereo not drawn) ?
no (0)

Check the results log: what was the call for CC(C(=O)COCc1ccccc1)P1(=O)OC(C)(C)CN1C(C)(C)C (stereo not drawn) ?
no (0)

Check the results log: what was the call for "COc1ccc2[nH]cc(C=C3C(=O)NC(=S)NC3=O)c2c1" ?
no (0)

Check the results log: what was the call for "CC(C)(C)C#CI1OC(=O)c2ccccc21" ?
no (0)

Check the results log: what was the call for "CC(C)(C)c1cc(C(=O)/C=C/c2ccc(C(=O)O)cc2)cc(C(C)(C)C)c1" ?
no (0)

Check the results log: what was the call for "CS(C)(=O)=N/C=C\C(=O)C(Cl)(Cl)Cl" ?
no (0)

Check the results log: what was the call for "C=C(C)C(=O)O[C@H]1[C@H]2[C@H](OC(=O)[C@H]2C)[C@H](O)[C@@H](C)[C@@H]2C=CC(=O)[C@]21C" ?
no (0)

Check the results log: what was the call for "Cc1cc(C)nc(NC(=S)Nc2ccccc2Cl)c1" ?
no (0)
